- assay-notes: Inhibition of alpha-glucosidase (unknown origin) using p-NPG as substrate by spectrophotometric analysis
- Design: species or system Homo sapiens
pIC50: −log10 of the molar value.
observed-property: pIC50

Some compounds with recorded pIC50:
compound	pIC50
COc1ccc(/C=C/c2cc(O)cc(O)c2)cc1O	4.81
C[C@H]1O[C@H](O[C@H]2[C@H](O)[C@@H](O)[C@@H](O[C@H]3[C@H](O)[C@@H](O)C(O)O[C@@H]3CO)O[C@@H]2CO)[C@H](O)[C@@H](O)[C@@H]1N[C@H]1C=C(CO)[C@@H](O)[C@H](O)[C@H]1O (some centres not stated)	3.90
COc1ccc(/C=C/c2cc(O)cc(O[C@@H]3O[C@H](COC(C)=O)[C@@H](O)[C@H](O)[C@H]3O)c2)cc1O	< 4.00
COc1cc(O[C@@H]2O[C@H](CO)[C@@H](O)[C@H](O)[C@H]2O)c2c(c1)C(=O)C(C)=C(C(C)=O)C2=O	< 4.00

Consider the compound shown here: Cc1cc(O)c2c(c1)C(=O)c1cccc(O[C@@H]3O[C@H](CO)[C@@H](O)[C@H](O)[C@H]3O)c1C2=O What is its recorded pIC50? < 4.00

Field request: pIC50 | item: Cc1cc(O[C@@H]2O[C@H](CO)[C@@H](O)[C@H](O)[C@H]2O)c2c(c1)C(=O)c1cccc(O)c1C2=O < 4.00

Report pIC50 for COc1cc(O[C@@H]2O[C@H](CO)[C@@H](O)[C@H](O)[C@H]2O)c2c(O)c(C(C)=O)c(C)cc2c1 please. < 4.00
